Reference for the values: PubChem BioAssay AID493033

# ASSAY SYSTEM: Salicylate synthase (Mycobacterium tuberculosis (strain CDC 1551 / Oshkosh)) (UniProt P9WFX0)
# Sequence (P9WFX0 whole entry, looked up): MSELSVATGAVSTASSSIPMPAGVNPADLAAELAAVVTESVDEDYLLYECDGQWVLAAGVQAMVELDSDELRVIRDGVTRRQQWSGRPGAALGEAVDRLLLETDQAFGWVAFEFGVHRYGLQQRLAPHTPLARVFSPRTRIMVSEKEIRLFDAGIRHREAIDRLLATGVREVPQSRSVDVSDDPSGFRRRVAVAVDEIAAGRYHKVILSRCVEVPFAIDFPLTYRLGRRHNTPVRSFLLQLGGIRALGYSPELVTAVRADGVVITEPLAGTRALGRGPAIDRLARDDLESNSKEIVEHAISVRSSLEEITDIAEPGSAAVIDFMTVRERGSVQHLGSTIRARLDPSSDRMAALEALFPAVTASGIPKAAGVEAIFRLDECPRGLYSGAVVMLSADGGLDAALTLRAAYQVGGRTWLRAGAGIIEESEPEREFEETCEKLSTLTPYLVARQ
# TEST SUMMARY: inhibitors of M. tuberculosis MbtI – biochemical, fluorescence intensity, primary screen (AID 493033)
# PARTICULARS: purified MbtI enzyme, fluorescence intensity read-out, stronger effect = higher value, concentration not given here
Hit rate of the full screen: of about 100,000 compounds, about 930 (0.93%) were called active. What follows is part of a selection rich in actives, with near analogues and random picks from the rest.
METRIC: inhibition (%)
Answer with a number only, understood to be in %.

| COMPOUND | METRIC | RECORDED MEASUREMENT |
| --- | --- | --- |
| CCn1cnc2cc(NCc3ccccn3)ccc21 | inhibition | -5.05 |

-- ask State its inhibition for this compound: O=C(OCC(=O)C12CC3CC(CC(C3)C1)C2)c1cccs1
-- reply 13.6

-- ask Answer with reported inhibition of COc1cccc(C(=O)Nc2ccccc2C#N)c1OC
-- reply -17.5

-- ask Let me know recorded inhibition for COc1ccc(OC)c(NC(=O)CCN2CCC(C)CC2)c1 , thanks.
-- reply -19.2

-- ask For the compound S=C(Cc1ccccc1)N1CCCCC1 , give its reported inhibition.
-- reply 29.6
